READOUT TYPE: melting point

Reference set, count: 5
- COMPOUND: "Cc1nc2ccc(-c3cc(=O)n4cc(N5CCNC(C)(C)C5)ccc4n3)cc2s1"
  melting point: "200 to 202 °C"
- COMPOUND: "CCc1cc(-c2cc(=O)n3cc(C4CCN(CC)CC4)ccc3n2)cn2cc(C)nc12"
  melting point: "196 to 200 °C"
- COMPOUND: "Cc1nc2ccc(-c3cc(=O)n4cc(C5=CCN(CCO)CC5)ccc4n3)cc2s1"
  melting point: "178 to 180 °C"
- COMPOUND: "Cc1cn2cc(-c3cc(=O)n4nc(C5CCNCC5)ccc4n3)cc(C)c2n1"
  melting point: "215 to 217 °C"
- COMPOUND: "Cc1cn2nc(-c3cc(=O)n4cc(N5CCC6NCCC6C5)ccc4n3)cc2c(C)n1 (stereo not shown)"
  melting point: "198 to 200 °C"

So, CCc1nc(C)cn2nc(-c3cc(=O)n4cc(C5CCN(CCF)CC5)ccc4n3)cc12 ? Its melting point was 206 to 208 °C

So, Cc1cn2cc(-c3cc(=O)n4cc(N5CC[C@@H](N(C)C)C5)ccc4n3)cc(F)c2n1 ? Its melting point was 300 °C (dec.)

So, CCc1nc(C)cn2nc(-c3cc(=O)n4cc(N5CCN[C@H](C)C5)cc(C)c4n3)cc12 ? Its melting point was 223 to 233 °C

So, Cc1cn2nc(-c3cc(=O)n4cc(N5CCC(NCCO)CC5)cc(C)c4n3)cc2c(C)n1 ? Its melting point was 221 to 232 °C

So, COc1cccc(-c2cc(=O)n3cc(N4CCNCC4)ccc3n2)n1 ? Its melting point was 214 to 218 °C

So, COc1cccc(-c2cc(=O)n3cc(N4CCCN(C)CC4)ccc3n2)c1 ? Its melting point was 130 to 132 °C

So, C[C@H]1CN(c2ccc3nc(-c4ccc5nn(C)cc5c4)cc(=O)n3c2)CCN1 ? Its melting point was 166 to 170 °C

So, Cc1nc2c(F)cc(-c3cc(=O)n4cc(N5CCN(C)[C@@H](C)C5)ccc4n3)cc2o1 ? Its melting point was 194 to 196 °C

So, CCc1cc(-c2cc(=O)n3cc(N4CCN(CCO)[C@@H](C)C4)ccc3n2)cn2cc(C)nc12 ? Its melting point was 220 to 223 °C

So, Cc1cn2cc(-c3cc(=O)n4cc(C5CCN(C(C)C)CC5)ccc4n3)ccc2n1 ? Its melting point was 218 to 220 °C

So, Cc1cn2nc(-c3cc(=O)n4cc(N5C[C@@H](C)N(C)[C@@H](C)C5)ccc4n3)cc2c(C)n1 ? Its melting point was 254 to 260 °C

###

test system: SMN2 minigene mRNA (SMN2-A minigene) in HEK293H cells; experiment: SMN2 minigene mRNA splicing RT-qPCR assay in cultured cells; assay type: cell-based, human; conditions: Homo sapiens, HEK293-H; concentration increasing full length SMN2 mRNA 1.5-fold relative to vehicle-treated cells; HEK293H cells with SMN2-A minigene, 24 hours, 7-point concentration data; read-out: EC1.5x for production of full length SMN2 mRNA
READOUT TYPE: EC (1.5-fold increase)

- CHEM SMILES: "Cc1cn2cc(-c3cc(=O)n4cc(C5=CCN(C(C)C)CC5)ncc4n3)cc2c(C)n1"
  EC (1.5-fold increase): "< 0.1 µM"
- CHEM SMILES: "Cc1nc2cc(-c3cc(=O)n4cc(N5CCNCC5)ccc4n3)ccc2o1"
  EC (1.5-fold increase): "0.1 to 0.3 µM"
- CHEM SMILES: "COc1cc(-c2cc(=O)n3cc(N4CCNCC4)ccc3n2)cc(F)c1OC"
  EC (1.5-fold increase): "1 to 3 µM"

Could you now look at the following compound, please?
So, Cc1cn2nc(-c3cc(=O)n4cc(N5CCC(NCCO)CC5)cc(C)c4n3)cc2c(C)n1 ? Its EC (1.5-fold increase) was < 0.1 µM

###

READOUT TYPE: melting point

- COMPOUND: "Cc1cn2cc(-c3cc(=O)n4cc(C5CCN(C)CC5)ccc4n3)ccc2n1 [Compound 448]"
  RESULT: "218 to 220 °C"

Could you now look at the following compound, please?
So, COc1ccc(-c2cc(=O)n3cc(N4CCN[C@H](C)C4)ccc3n2)cc1 [Compound 3] ? Its melting point was 152 to 154 °C

###

Known EC (1.5-fold increase) of a selection of compounds
tested on: SMN2 minigene mRNA (SMN2-A minigene) in HEK293H cells; experiment: SMN2 minigene mRNA splicing RT-qPCR assay in cultured cells; format: cell-based, human; conditions: Homo sapiens, HEK293-H; concentration increasing full length SMN2 mRNA 1.5-fold relative to vehicle-treated cells; HEK293H cells with SMN2-A minigene, 24 hours, 7-point concentration data; read-out: EC1.5x for production of full length SMN2 mRNA

- CHEM SMILES: "COc1ccc(-c2cc(=O)n3cc(N4CC[C@H](N(C)C)C4)ccc3n2)cc1F"
  EC (1.5-fold increase): "0.3 to 1 µM"
- CHEM SMILES: "Cc1nc2cc(-c3cc(=O)n4cc(N5CCN6CCC[C@H]6C5)ccc4n3)ccc2s1"
  EC (1.5-fold increase): "0.3 to 1 µM"
- CHEM SMILES: "Cc1cn2cc(-c3cc(=O)n4cc(N5CCN[C@H](C)C5)ccc4n3)cc(C(F)(F)F)c2n1"
  EC (1.5-fold increase): "< 0.1 µM"
- CHEM SMILES: "Cc1cn2nc(-c3cc(=O)n4cc(C#CCN)ccc4n3)cc2c(C)n1"
  EC (1.5-fold increase): "0.3 to 1 µM"
- CHEM SMILES: "Cc1ccc(-c2cc(=O)n3cc(N4CCNCC4)ccc3n2)cc1F"
  EC (1.5-fold increase): "1 to 3 µM"
- CHEM SMILES: "CCc1nc(C)cn2nc(-c3cc(=O)n4cc(N5C[C@@H](C)N[C@@H](C)C5)ccc4n3)cc12"
  EC (1.5-fold increase): "< 0.1 µM"
- CHEM SMILES: "Cc1cn2nc(-c3cc(=O)n4cc(N5CC(CN(C)C)C5)ccc4n3)cc2c(C)n1"
  EC (1.5-fold increase): "< 0.1 µM"
- CHEM SMILES: "O=c1cc(-c2ccn3ccnc3c2)nc2ccc(N3CCNCC3)cn12"
  EC (1.5-fold increase): "0.3 to 1 µM"

So, COc1cc(F)cc(-c2cc(=O)n3cc(N4CCNCC4)ccc3n2)c1 ? Its EC (1.5-fold increase) was 1 to 3 µM

So, Cc1nc2ccc(-c3cc(=O)n4cc(C5=CCN(C6CC6)CC5)ccc4n3)cc2s1 ? Its EC (1.5-fold increase) was 0.3 to 1 µM

So, COc1ccc(-c2ccc3nc(C4=CCNCC4)cc(=O)n3c2)cc1OC ? Its EC (1.5-fold increase) was 0.1 to 0.3 µM

So, CCc1nc(C)cn2nc(-c3cc(=O)n4cc(NCCN5CCOCC5)ccc4n3)cc12 ? Its EC (1.5-fold increase) was 3 to 30 µM

So, O=c1cc(-c2ccc(Cl)cc2)nc2ccc(N3CCNCC3)cn12 ? Its EC (1.5-fold increase) was 1 to 3 µM

So, CCc1cc(-c2cc(=O)n3cc(N4CCN(C)[C@H](C)C4)ccc3n2)cn2cc(C)nc12 ? Its EC (1.5-fold increase) was < 0.1 µM

So, Cc1cn2cc(-c3cc(=O)n4cc(C5CCN(C)CC5)ccc4n3)cc(C)c2n1 ? Its EC (1.5-fold increase) was < 0.1 µM

So, CCN1CCC(c2cn3c(=O)cc(-c4cc5c(C)nc(C)cn5n4)nc3cn2)CC1 ? Its EC (1.5-fold increase) was < 0.1 µM

So, COc1ccc(-c2cc(=O)n3cc(N4CC[C@@H](N(C)C)C4)ccc3n2)cc1F ? Its EC (1.5-fold increase) was 0.3 to 1 µM

###

Known melting point of a selection of compounds

- COMPOUND: "COc1ccc(-c2cc(=O)n3cc(N4CCNCC4)ccc3n2)cc1Cl"
  READOUT TYPE: "melting point"
  RESULT: "201 to 203 °C"
- COMPOUND: "C[C@@H]1CN(c2ccc3nc(-c4ccc5c(cnn5C)c4)cc(=O)n3c2)CCN1"
  READOUT TYPE: "melting point"
  RESULT: "190 to 192 °C"
- COMPOUND: "CCN1CCN(c2ccc3nc(-c4cc(Cl)c5nc(C)cn5c4)cc(=O)n3c2)CC1"
  READOUT TYPE: "melting point"
  RESULT: "264 to 268 °C"
- COMPOUND: "Cc1cn2cc(-c3cc(=O)n4cc(N5CCN[C@H](C)C5)ccc4n3)cc(Cl)c2n1"
  READOUT TYPE: "melting point"
  RESULT: "236 to 239 °C"
- COMPOUND: "COc1ccc(-c2cc(=O)n3cc(N4CCNCC4)ccc3n2)cn1"
  READOUT TYPE: "melting point"
  RESULT: "173 to 178 °C"
- COMPOUND: "C[C@H]1CN(c2ccc3nc(-c4ccc(O)c(OC(F)F)c4)cc(=O)n3c2)CCN1"
  READOUT TYPE: "melting point"
  RESULT: "192 to 197 °C"
- COMPOUND: "COc1ccc(-c2cc(=O)n3cc(C4CCN(CCO)CC4)ccc3n2)cc1OC"
  READOUT TYPE: "melting point"
  RESULT: "145 to 148 °C"
- COMPOUND: "COc1ccc(-c2cc(=O)n3cc(N4CCNCC4)ccc3n2)c(OC)c1"
  READOUT TYPE: "melting point"
  RESULT: "171 to 173 °C"
- COMPOUND: "COc1ccc(-c2cc(=O)n3cc(N4CCC(N(C)C)C4)ccc3c2)cc1F (centres unmarked)"
  READOUT TYPE: "melting point"
  RESULT: "259 to 261 °C"
- COMPOUND: "CCCc1nc(C)cn2nc(-c3cc(=O)n4cc(N5CCN(CC)CC5)ccc4n3)cc12"
  READOUT TYPE: "melting point"
  RESULT: "231 to 233 °C"

So, Cc1cn2cc(-c3cc(=O)n4cc(N5CCN(CCOCCO)[C@@H](C)C5)ccc4n3)cc(F)c2n1 ? Its melting point was 175 to 181 °C

So, Cc1cn2cc(-c3cc(=O)n4cc(C5CCN(C)CC5)ncc4n3)cc(C)c2n1 ? Its melting point was 249 to 251 °C

So, Cc1cn2nc(-c3cc(=O)n4cc(N5CCC6C(CCN6C)C5)ccc4n3)cc2c(C)n1 (centres unmarked) ? Its melting point was 210 to 212 °C

So, COc1ccc(-c2cc(=O)n3cc(N4CCC(CN(C)C)CC4)ccc3n2)cc1F ? Its melting point was 178 to 185 °C

So, COc1ccc(-c2cc(=O)n3cc(N4CCC(N5CCOCC5)CC4)cc(C)c3n2)cc1OC ? Its melting point was 219 to 224 °C

So, CCc1nc(C)cn2nc(-c3cc(=O)n4cc(N5CCC(N6CCCC6)CC5)ccc4n3)cc12 ? Its melting point was 229 to 232 °C

So, O=c1cc(-c2ccc3[nH]ccc3c2)nc2ccc(N3CCNCC3)cn12 ? Its melting point was 266 to 272 °C
